Each record here notes measured pKi.
# measured-on: T1, h-FXIIa (human, UniProt P00748 20-615)
# T1 construct: also called factor XIIa
# T1 sequence (looked up): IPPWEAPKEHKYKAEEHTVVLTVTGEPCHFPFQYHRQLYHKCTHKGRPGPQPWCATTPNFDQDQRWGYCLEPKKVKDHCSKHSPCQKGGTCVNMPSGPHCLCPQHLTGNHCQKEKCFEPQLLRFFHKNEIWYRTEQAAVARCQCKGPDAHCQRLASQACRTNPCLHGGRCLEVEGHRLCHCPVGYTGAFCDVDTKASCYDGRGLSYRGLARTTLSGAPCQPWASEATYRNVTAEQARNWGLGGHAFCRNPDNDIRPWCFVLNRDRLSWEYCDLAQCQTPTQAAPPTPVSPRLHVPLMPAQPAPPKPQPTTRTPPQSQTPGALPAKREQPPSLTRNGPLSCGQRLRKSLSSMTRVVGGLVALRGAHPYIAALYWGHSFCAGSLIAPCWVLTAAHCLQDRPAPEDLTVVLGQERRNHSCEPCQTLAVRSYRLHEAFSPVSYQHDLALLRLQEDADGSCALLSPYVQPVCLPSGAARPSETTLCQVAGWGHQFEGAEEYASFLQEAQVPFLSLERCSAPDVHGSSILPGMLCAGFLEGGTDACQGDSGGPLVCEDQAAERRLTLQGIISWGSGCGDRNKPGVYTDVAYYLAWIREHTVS
# test-details: S2302 hydrolysis by h-FXIIa (5.01 nM); inhibitor at RT during 72 hrs
Where no end group is shown, it is not given here.
Would you please state pKi, meaning minus log10 of the concentration in mol/L, as a bare number?

// field: pKi; key: RVCPKILMECKKDSDCLAECICLEHGYCG (disulfide (positions not given here), Synthetic congener) [TICA 4] ; value = 5.85

Others:
# binder RVCPRILMECKKDSDCLAECVCLEHGYCG (disulfide (positions not given here), Synthetic, folded peptide) [TICA 2] ; its pKi = 6.94

The recorded pKi for entry Corn trypsin inhibitor (other, UniProt P01088 29-138, looked up, also called CTI) SAGTSCVPGWAIPHNPLPSCRWYVTSRTCGIGPRLPWPELKRRCCRELADIPAYCRCTALSILMDGAIPPGPDAQLEGRLEDLPGCPREVQRGFAATLVTEAECNLATIS equals 8.38

Data point: HEERVCPRILMKCKKDSDCLAECVCLEHGYCG (Synthetic congener; also called HEE-TICA1) [TICA 3] ; pKi = 5.50

Entry HEERVCPKILMECKKDSDCLAECICLEHGYCG (Synthetic congener; also called HEE-TICA4) [TICA 5] , pKi reported as 3.78
